Hi there, I'd appreciate the recorded OD450 for every entry that follows.
- target-under-test: BSA (UniProt P02769)
- Sequence (P02769 25-607 limits assumed): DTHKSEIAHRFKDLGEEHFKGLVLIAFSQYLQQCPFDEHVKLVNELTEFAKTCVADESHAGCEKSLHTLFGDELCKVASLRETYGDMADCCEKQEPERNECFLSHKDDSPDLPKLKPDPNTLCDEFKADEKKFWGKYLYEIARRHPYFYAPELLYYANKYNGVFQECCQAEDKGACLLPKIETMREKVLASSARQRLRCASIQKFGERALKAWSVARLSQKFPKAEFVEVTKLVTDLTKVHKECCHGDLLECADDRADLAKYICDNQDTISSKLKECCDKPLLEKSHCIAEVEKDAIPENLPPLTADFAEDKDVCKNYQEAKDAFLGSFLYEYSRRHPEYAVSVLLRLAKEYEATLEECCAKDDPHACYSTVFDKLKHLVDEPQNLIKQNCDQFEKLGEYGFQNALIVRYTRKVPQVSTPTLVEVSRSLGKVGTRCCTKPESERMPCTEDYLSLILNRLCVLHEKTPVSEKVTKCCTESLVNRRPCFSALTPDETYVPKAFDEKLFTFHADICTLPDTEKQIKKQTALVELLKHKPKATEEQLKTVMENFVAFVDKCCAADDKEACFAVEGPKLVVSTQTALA
- assay: scFv ELISA
Unit OD450 implied. Number only.

Entry PcOxP_DB02_H06 (scFv, V domains shown, scFv in periplasmic extract) VH: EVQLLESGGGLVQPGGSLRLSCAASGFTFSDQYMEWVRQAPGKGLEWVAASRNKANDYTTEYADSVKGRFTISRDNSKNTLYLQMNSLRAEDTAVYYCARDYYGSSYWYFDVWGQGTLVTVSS VL: DIVMTQSPDSLAVSLGERATINCTSSESLYSSKNKVNYLAWYQQKPGQPPKLLIYGASNRYIGVPDRFSGSGSGTDFTLTISSLQAEDVAVYYCAQFYFYPLTFGGGTKVEIK ; OD450 = 0.07

Entry PcOxP_DB02_C04 (scFv, V domains shown, scFv in periplasmic extract) VH: EVQLLESGGGLVQPGGSLRLSCAASGQTFSDFYMEWVRQAPGKGLEWVAASRNKANGYTTEYTDSVKGRFTISRDNSKNTLYLQMNSLRAEDTAVYYCARDYYGSSYWYFDVWGQGTLVTVSS VL: DIVMTQSPDSLAVSLGERATINCTASESLYSSKHKVHYLAWYQQKPGQPPKLLIYGANNRYIGVPDRFSGSGSGTDFTLTISSLQAEDVAVYYCAQFYSYPLTFGGGTKVEIK ; OD450 = 0.08

Entry PcOxP_DB04_A11 (scFv, V domains shown, scFv in periplasmic extract) VH: EVQLLESGGGLVQPGGSLRLSCAASGFTFSDYYMEWVRQAPGKGLEWVAASRNKANTYTTEYADSVKGRFTISRDNSKNTLYLQMNSLRAEDTAVYYCARDYYGSSYWYFDVWGQGTLVTVSS VL: DIVMTQSPDSLAVSLGERATINCTASESVLSSKHKKNYLAWYQQKPGQPPKLLIYGASTRYIGVPDRFSGSGSGTDFTLTISSLQAEDVAVYYCAQFYSYPLTFGGGTKVEIK ; OD450 = 0.1
